# Tested on: S. pneumoniae mef A genotype (second strain so labelled)
# test.summary: CLSI broth dilution MIC determination
# Format: cell-based
# stated.conditions: Gram-positive

compound: CC[C@H]1OC(=O)[C@H](C)C(=O)[C@H](C)[C@@H](O[C@@H]2OC(C)CC(N(C)C)C2O)[C@](C)(OC)C[C@@H](C)C(=O)[C@H](C)[C@H]2N(C/C=C\Cn3cc(-c4cccc(N)c4)nn3)C(=O)O[C@]12C (stereo partly shown)
MIC: < 0.0312 µg/mL
--
compound: CC[C@H]1OC(=O)[C@@](C)(F)C(=O)[C@H](C)[C@@H](O[C@@H]2OC(C)CC(N(C)C)C2O)[C@](C)(OC)C[C@@H](C)C(=O)[C@H](C)[C@H]2N(C/C=C/Cn3cc(-c4cnc(N)s4)nn3)C(=O)O[C@]12C (stereo partly shown)
MIC: 0.25 µg/mL
--
compound: CC[C@H]1OC(=O)[C@H](C)C(=O)[C@H](C)[C@@H](O[C@@H]2OC(C)CC(N(C)C)C2O)[C@](C)(OC)C[C@@H](C)C(=O)[C@H](C)[C@H]2N(C/C=C/Cn3cc(-c4nccs4)nn3)C(=O)O[C@]12C (stereo partly shown)
MIC: 0.125 µg/mL
--
compound: CC[C@H]1OC(=O)[C@H](C)C(=O)[C@H](C)[C@@H](O[C@@H]2OC(C)CC(N(C)C)C2O)[C@](C)(OC)C[C@@H](C)C(=O)[C@H](C)[C@H]2N(C/C=C/Cn3nnnc3-c3ccccn3)C(=O)O[C@]12C (stereo partly shown)
MIC: < 0.0312 µg/mL
